# TEST_TARGET: CD38 (Homo sapiens)
# TEST_SUMMARY: Radiochemical measurement of reaction rates (covalent labelling of CD38 by [2′-3H] inhibitor, gel filtration)
# Assay type: binding
# PARTICULARS: read-out: Kieff = koff/kon (kon from radioactivity)
EXPERIMENTAL_ENDPOINT: pKi
# log scale: pKi equals minus log10 of the concentration in mol/L

Entry NC(=O)c1ccc[n+]([C@H]2C[C@H](O)[C@@H](CO)O2)c1 [βNdR, β-1′-nicotinamide-2′-deoxyribose] has what pKi?
8.49

* * *

# TEST_TARGET: CD38 (Homo sapiens, UniProt P28907)
# Sequence (P28907 45-300): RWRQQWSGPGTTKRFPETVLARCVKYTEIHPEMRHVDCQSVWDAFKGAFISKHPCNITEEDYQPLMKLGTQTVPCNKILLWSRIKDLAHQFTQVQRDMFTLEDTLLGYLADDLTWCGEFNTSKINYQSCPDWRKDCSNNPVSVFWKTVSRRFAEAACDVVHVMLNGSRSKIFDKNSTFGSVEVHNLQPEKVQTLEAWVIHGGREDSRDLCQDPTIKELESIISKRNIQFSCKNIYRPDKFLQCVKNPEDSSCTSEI
# TEST_SUMMARY: Determination of Ki and kchem by competitive method (NGD+ substrate, absorbance at 295 nm)
# Assay type: biochemical
# PARTICULARS: calculated value; read-out: Kieff (koffKi/kchem)
EXPERIMENTAL_ENDPOINT: Ki (µM)
Record the value in µM, omitting the unit from your answer.

Entry OC[C@H]1O[C@@H]([n+]2ccccc2)C[C@@H]1O [β-pyridyl-deoxyribose, β-1′-pyridyl-2′-deoxyribose] has what Ki?
323
